Each recorded value in this set is attributed to patent US20140112930A1.

Hi there, I'd appreciate the recorded T1/2 for every entry that follows.
biological target: T1, Dimeric Human Ang-2FD conjugated to human IgG1 (human); assay: SPR, captured Ab, RT
T1 construct: also called Human Ang-2FD-hFc; hAng-2FD-hFc
T1 sequence (chain, as listed by the source limits assumed): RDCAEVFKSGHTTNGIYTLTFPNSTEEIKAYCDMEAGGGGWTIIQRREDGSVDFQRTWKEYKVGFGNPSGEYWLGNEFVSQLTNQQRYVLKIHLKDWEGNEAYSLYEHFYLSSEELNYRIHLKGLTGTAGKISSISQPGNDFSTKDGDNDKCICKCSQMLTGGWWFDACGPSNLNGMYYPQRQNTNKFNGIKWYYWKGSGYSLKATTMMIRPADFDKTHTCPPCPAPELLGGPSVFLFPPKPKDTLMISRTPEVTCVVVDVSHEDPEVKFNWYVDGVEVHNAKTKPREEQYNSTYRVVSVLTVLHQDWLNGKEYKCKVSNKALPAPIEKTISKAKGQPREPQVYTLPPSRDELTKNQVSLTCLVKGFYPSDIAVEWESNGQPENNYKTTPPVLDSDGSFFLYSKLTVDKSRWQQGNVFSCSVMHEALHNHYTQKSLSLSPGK
Write it as a number; the unit min goes unstated.

*Q* Give recorded T1/2. H1H696P (antibody, V domains shown) VH: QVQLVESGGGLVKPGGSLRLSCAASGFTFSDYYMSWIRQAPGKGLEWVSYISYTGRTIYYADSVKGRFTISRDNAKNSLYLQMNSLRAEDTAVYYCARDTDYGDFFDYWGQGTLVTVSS VL: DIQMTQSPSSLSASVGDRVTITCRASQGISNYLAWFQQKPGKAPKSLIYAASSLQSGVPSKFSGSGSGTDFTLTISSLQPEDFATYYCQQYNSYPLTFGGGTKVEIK
*A* 38.8

*Q* // fetch T1/2 given entry H2M730N (antibody, V domains shown) VH: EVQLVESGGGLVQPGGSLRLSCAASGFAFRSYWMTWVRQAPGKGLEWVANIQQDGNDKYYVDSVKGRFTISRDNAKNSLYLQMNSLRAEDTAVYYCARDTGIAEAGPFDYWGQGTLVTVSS VL: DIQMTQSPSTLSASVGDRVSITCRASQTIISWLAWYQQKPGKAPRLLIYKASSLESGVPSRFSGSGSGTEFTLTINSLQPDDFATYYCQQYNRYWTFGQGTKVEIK
*A* 47
